Data origin: patent US20240325561A1

IC50, in vitro cytotoxicity, RL cells values, listed per item
Target: T1, CD19 (UniProt P15391 20-556, limits assumed)
T1 sequence (looked up): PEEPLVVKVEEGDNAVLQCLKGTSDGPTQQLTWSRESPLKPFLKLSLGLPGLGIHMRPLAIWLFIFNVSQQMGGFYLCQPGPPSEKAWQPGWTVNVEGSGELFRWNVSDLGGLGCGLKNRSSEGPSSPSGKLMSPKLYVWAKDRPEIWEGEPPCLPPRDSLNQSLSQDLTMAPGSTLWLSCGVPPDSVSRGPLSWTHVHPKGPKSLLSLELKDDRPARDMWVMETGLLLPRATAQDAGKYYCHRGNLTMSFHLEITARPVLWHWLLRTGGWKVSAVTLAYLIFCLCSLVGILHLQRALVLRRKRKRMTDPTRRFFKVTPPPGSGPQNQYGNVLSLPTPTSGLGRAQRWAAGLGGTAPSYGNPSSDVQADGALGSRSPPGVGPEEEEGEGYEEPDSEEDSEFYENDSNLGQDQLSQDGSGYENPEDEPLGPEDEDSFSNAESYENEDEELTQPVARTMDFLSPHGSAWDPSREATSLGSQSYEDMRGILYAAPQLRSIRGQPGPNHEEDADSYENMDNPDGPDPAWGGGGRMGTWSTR
Test: cell-based or functional assay
Value expressed in µg/mL; do not type the unit.

>  <binder>
hBU12-43 (antibody, V domains shown, antibody carries drug-linker 43 (MDpr-Lys(PEG2)-glucuronide-MMAE), 8 drugs per antibody) VH: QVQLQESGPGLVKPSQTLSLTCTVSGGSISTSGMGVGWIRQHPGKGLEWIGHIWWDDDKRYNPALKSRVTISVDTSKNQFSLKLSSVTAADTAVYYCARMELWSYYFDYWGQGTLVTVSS VL: EIVLTQSPATLSLSPGERATLSCSASSSVSYMHWYQQKPGQAPRLLIYDTSKLASGIPARFSGSGSGTDFTLTISSLEPEDVAVYYCFQGSVYPFTFGQGTKLEIKR

>  <result unit>
µg/mL

>  <result>
0.229

$$$$

Fill in: IC50, in vitro cytotoxicity, RL cells of hBU12-14 (antibody, V domains shown, antibody carries drug-linker 14 (MDpr-glucuronide-MMAE, no PEG), 8 drugs per antibody) VH: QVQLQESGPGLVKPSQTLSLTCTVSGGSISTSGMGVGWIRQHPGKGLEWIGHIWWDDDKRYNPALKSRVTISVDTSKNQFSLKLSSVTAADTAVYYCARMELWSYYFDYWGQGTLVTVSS VL: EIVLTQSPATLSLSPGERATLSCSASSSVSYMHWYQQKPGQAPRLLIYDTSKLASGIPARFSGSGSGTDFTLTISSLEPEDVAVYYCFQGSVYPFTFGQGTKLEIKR is ___ 0.061
